Source of measurements: ChEMBL document CHEMBL1671859

Tested on: Citrobacter amalonaticus
ASSAY: Antibacterial activity against Citrobacter amalonaticus isolate Ca1614 harboring IncL/M plasmid and blaIMP-4-qacG2-aacA4-catB3 array by Etest method
Type: functional
TEST_READOUT: MIC

Recorded results for 3 compounds are shown here.
{"COMPOUND": "NC[C@H]1O[C@H](O[C@H]2[C@H](O)[C@@H](O[C@H]3O[C@H](CO)[C@@H](O)[C@H](N)[C@H]3O)[C@H](N)C[C@@H]2N)[C@H](N)C[C@@H]1O [TOBRAMYCIN]", "MIC": "> 8 µg/mL"}
{"COMPOUND": "C[C@H]1[C@H](NC(=O)/C(=N\\OC(C)(C)C(=O)O)c2csc(N)n2)C(=O)N1S(=O)(=O)O [AZTREONAM]", "MIC": "> 16 µg/mL"}
{"COMPOUND": "C[C@@H](O)[C@H]1C(=O)N2C(C(=O)O)=C(SCCNC=N)C[C@H]12 [IMIPENEM ANHYDROUS]", "MIC": "4 µg/mL"}

Each compound below has a recorded value; state its MIC.
1. O=C(O)c1cn(C2CC2)c2cc(N3CCNCC3)c(F)cc2c1=O [CIPROFLOXACIN]
2. CO/N=C(\C(=O)N[C@@H]1C(=O)N2C(C(=O)O)=C(COC(C)=O)CS[C@H]12)c1csc(N)n1 [CEFOTAXIME]

Outgoing:
1. ≤ 0.5 µg/mL
2. > 32 µg/mL

====

System: Klebsiella pneumoniae
ASSAY: Antibacterial activity against Klebsiella pneumoniae isolate Kp266 harboring IncA/C plasmid and blaIMP-4-qacG2-aacA4-catB3 array by Etest method
Type: functional
Kindly state MIC for each of the entries shown.

Recorded results for 3 molecules are shown here.
{"MOLECULE": "CO/N=C(\\C(=O)N[C@@H]1C(=O)N2C(C(=O)O)=C(COC(C)=O)CS[C@H]12)c1csc(N)n1 [CEFOTAXIME]", "MIC": "> 32 µg/mL"}
{"MOLECULE": "NC[C@H]1O[C@H](O[C@H]2[C@H](O)[C@@H](O[C@H]3O[C@H](CO)[C@@H](O)[C@H](N)[C@H]3O)[C@H](N)C[C@@H]2N)[C@H](N)C[C@@H]1O [TOBRAMYCIN]", "MIC": "> 8 µg/mL"}
{"MOLECULE": "C[C@@H](O)[C@H]1C(=O)N2C(C(=O)O)=C(SCCNC=N)C[C@H]12 [IMIPENEM ANHYDROUS]", "MIC": "8 µg/mL"}

Incoming: Look up and report MIC, with Klebsiella pneumoniae as system, for C[C@H]1[C@H](NC(=O)/C(=N\OC(C)(C)C(=O)O)c2csc(N)n2)C(=O)N1S(=O)(=O)O [AZTREONAM]
Outgoing: ≤ 1 µg/mL

====

Kindly state MIC for each of the entries shown.
System: Citrobacter freundii
ASSAY: Antibacterial activity against Citrobacter freundii isolate Cf1614 harboring IncL/M plasmid and blaIMP-4-qacG2-aacA4-catB3 array by Etest method
Type: functional

Recorded results for 4 compounds are shown here.
{"COMPOUND": "O=C(O)c1cn(C2CC2)c2cc(N3CCNCC3)c(F)cc2c1=O", "TEST_READOUT": "MIC", "MEAS_VALUE": "≤ 0.5 µg/mL"}
{"COMPOUND": "C[C@H]1[C@H](NC(=O)/C(=N\\OC(C)(C)C(=O)O)c2csc(N)n2)C(=O)N1S(=O)(=O)O", "TEST_READOUT": "MIC", "MEAS_VALUE": "> 16 µg/mL"}
{"COMPOUND": "C[C@@H](O)[C@H]1C(=O)N2C(C(=O)O)=C(SCCNC=N)C[C@H]12 [IMIPENEM ANHYDROUS]", "TEST_READOUT": "MIC", "MEAS_VALUE": "4 µg/mL"}
{"COMPOUND": "NC[C@H]1O[C@H](O[C@H]2[C@H](O)[C@@H](O[C@H]3O[C@H](CO)[C@@H](O)[C@H](N)[C@H]3O)[C@H](N)C[C@@H]2N)[C@H](N)C[C@@H]1O", "TEST_READOUT": "MIC", "MEAS_VALUE": "> 8 µg/mL"}

Here's the next entry for you.
Incoming: Tell me its MIC given `CO/N=C(\C(=O)N[C@@H]1C(=O)N2C(C(=O)O)=C(COC(C)=O)CS[C@H]12)c1csc(N)n1` as the entry.
Outgoing: > 32 µg/mL

====

Kindly state MIC for each of the entries shown.
Test system: Klebsiella oxytoca
ASSAY: Antibacterial activity against Klebsiella oxytoca isolate Ko0426 harboring IncL/M plasmid and blaIMP-4-qacG2-aacA4-catB3 array by Etest method
Assay type: functional
Numbers only, in µg/mL.

{"COMPOUND": "CO/N=C(\\C(=O)N[C@@H]1C(=O)N2C(C(=O)O)=C(COC(C)=O)CS[C@H]12)c1csc(N)n1 [CEFOTAXIME]", "TEST_READOUT": "MIC", "MEAS_VALUE": 32}

Here's the next entry for you.
Incoming: Tell me its MIC given C[C@@H](O)[C@H]1C(=O)N2C(C(=O)O)=C(SCCNC=N)C[C@H]12 [IMIPENEM ANHYDROUS] as the entry.
Outgoing: 4

====

Tested on: Citrobacter amalonaticus
ASSAY: Antibacterial activity against Citrobacter amalonaticus isolate Ca3927 harboring IncL/M plasmid and blaIMP-4-qacG2-aacA4-catB3 array by Etest method
Type: functional
TEST_READOUT: MIC

Recorded results for 2 compounds are shown here.
{"COMPOUND": "NC[C@H]1O[C@H](O[C@H]2[C@H](O)[C@@H](O[C@H]3O[C@H](CO)[C@@H](O)[C@H](N)[C@H]3O)[C@H](N)C[C@@H]2N)[C@H](N)C[C@@H]1O [TOBRAMYCIN]", "MIC": "> 8 µg/mL"}
{"COMPOUND": "C[C@@H](O)[C@H]1C(=O)N2C(C(=O)O)=C(SCCNC=N)C[C@H]12 [IMIPENEM ANHYDROUS]", "MIC": "2 µg/mL"}

Each compound below has a recorded value; state its MIC.
1. CO/N=C(\C(=O)N[C@@H]1C(=O)N2C(C(=O)O)=C(COC(C)=O)CS[C@H]12)c1csc(N)n1 [CEFOTAXIME]
2. O=C(O)c1cn(C2CC2)c2cc(N3CCNCC3)c(F)cc2c1=O [CIPROFLOXACIN]
3. C[C@H]1[C@H](NC(=O)/C(=N\OC(C)(C)C(=O)O)c2csc(N)n2)C(=O)N1S(=O)(=O)O [AZTREONAM]

Outgoing:
> 32 µg/mL
≤ 0.5 µg/mL
> 16 µg/mL

====

Tested on: Escherichia coli
ASSAY: Antibacterial activity against Escherichia coli isolate Ec9381 harboring IncL/M plasmid and blaIMP-4-qacG2-aacA4-catB3 array by Etest method
Assay type: functional
TEST_READOUT: MIC

Recorded results for 4 molecules are shown here.
{"MOLECULE": "C[C@@H](O)[C@H]1C(=O)N2C(C(=O)O)=C(SCCNC=N)C[C@H]12 [IMIPENEM ANHYDROUS]", "MIC": "1.5 µg/mL"}
{"MOLECULE": "O=C(O)c1cn(C2CC2)c2cc(N3CCNCC3)c(F)cc2c1=O", "MIC": "≤ 0.5 µg/mL"}
{"MOLECULE": "CO/N=C(\\C(=O)N[C@@H]1C(=O)N2C(C(=O)O)=C(COC(C)=O)CS[C@H]12)c1csc(N)n1", "MIC": "> 32 µg/mL"}
{"MOLECULE": "NC[C@H]1O[C@H](O[C@H]2[C@H](O)[C@@H](O[C@H]3O[C@H](CO)[C@@H](O)[C@H](N)[C@H]3O)[C@H](N)C[C@@H]2N)[C@H](N)C[C@@H]1O", "MIC": "> 8 µg/mL"}

Here's the next entry for you.
Incoming: Tell me its MIC given `C[C@H]1[C@H](NC(=O)/C(=N\OC(C)(C)C(=O)O)c2csc(N)n2)C(=O)N1S(=O)(=O)O` as the entry.
Outgoing: ≤ 1 µg/mL

====

Tested on: Klebsiella pneumoniae
ASSAY: Antibacterial activity against Klebsiella pneumoniae isolate Kp1239 harboring IncL/M plasmid and blaIMP-4-qacG2-aacA4-catB3 array by Etest method
Format: functional
Kindly state MIC for each of the entries shown.

Each molecule below has a recorded value; state its MIC.
1. C[C@H]1[C@H](NC(=O)/C(=N\OC(C)(C)C(=O)O)c2csc(N)n2)C(=O)N1S(=O)(=O)O
2. C[C@@H](O)[C@H]1C(=O)N2C(C(=O)O)=C(SCCNC=N)C[C@H]12 [IMIPENEM ANHYDROUS]
3. NC[C@H]1O[C@H](O[C@H]2[C@H](O)[C@@H](O[C@H]3O[C@H](CO)[C@@H](O)[C@H](N)[C@H]3O)[C@H](N)C[C@@H]2N)[C@H](N)C[C@@H]1O
4. CO/N=C(\C(=O)N[C@@H]1C(=O)N2C(C(=O)O)=C(COC(C)=O)CS[C@H]12)c1csc(N)n1

Outgoing:
1: ≤ 1 µg/mL; 2: > 32 µg/mL; 3: 8 µg/mL; 4: > 32 µg/mL
